All values here come from the supplement of paper PMC8285479.

Tested on: NCI-H1944
Assay explanation: normalised cell viability (NPI; 0 = phenylarsine oxide control, 1 = DMSO control) (fraction of DMSO control); higher = more viable cells (less compound toxicity)
Condition description: glucocorticoid arm: hydrocortisone 2.75 uM pre-treated 2 days and continued; compound 5 µM; 6 days
Whole data set: some 1,900 compounds, median “normalised cell viability (NPI; 0 = phenylarsine oxide control, 1 = DMSO control)” near 1, cut for the lowest 2% near 0.039. The full list was thinned out, with the lowest values kept by preference.
Give normalised cell viability for every item shown.
Numbers only.

Molecule	normalised cell viability
N[C@@H](Cc1ccc(O)c(I)c1)C(=O)O	0.996

Parameters: items (list). Returns: normalised cell viability for each item.
1. O=C1NC(=O)C(=Cc2ccc(-c3ccc(F)cc3)o2)S1 (stereo in doubt)
2. Cc1c(F)ccc(C(=O)Nc2cc([N+](=O)[O-])ccc2N2CCN(C)CC2)c1Cl
3. C[C@]12CC[C@@H]3c4ccc(O)cc4CC[C@H]3[C@@H]1C[C@@H](O)[C@@H]2O
4. Clc1ccc(C2(c3ccc(-c4cn[nH]c4)cc3)CCNCC2)cc1
5. CCOC(=O)[C@]12CC1/C(=N\O)c1ccccc1O2 (stereo partly specified)

1. 1.01
2. 1
3. 1.02
4. 1.01
5. 1.02

====

Test system: NCI-H1944;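 further: CTB read-out in 384-well plates, triplicate wells, NPI normalised per plate against 1 µM phenylarsine oxide (0) and 0.1% DMSO (1) controls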
Assay explanation: normalised cell viability (NPI; 0 = phenylarsine oxide control, 1 = DMSO control) (fraction of DMSO control); NCI-H1944 is a non-small cell lung cancer line; higher = more viable cells (less compound toxicity)
Condition description: glucocorticoid arm: hydrocortisone 2.75 uM pre-treated 2 days and continued; compound 1 µM; 6 days
Structures can show the parent of a compound that is named as a salt. Whole data set: some 1,900 compounds, median “normalised cell viability (NPI; 0 = phenylarsine oxide control, 1 = DMSO control)” near 1, cut for the lowest 2% near 0.039. The entries come from a sample that favours the lowest values as a whole.
Give normalised cell viability for every item shown.
Answers are plain numbers.

Would you please look over these solved cases?
Compound	normalised cell viability
CCCCCCCCCC(=O)NC(CN1CCOCC1)[C@H](O)c1ccccc1 (mixture of isomers)	1.02
CCN(CC)CCNC(=O)c1ccc(NC(C)=O)cc1 [N-Acetylprocainamide hydrochloride]	0.994
NCC(=O)CCC(=O)O [Aminolevulinic acid hydrochloride; Aminolevulinic acid]	1.02

Parameters: items (list). Returns: normalised cell viability for each item.
1. CCN(CC)Cc1ccc2cc(COC(=O)Nc3ccc(C(=O)NO)cc3)ccc2c1 [Givinostat (ITF2357)]
2. CCCCCCCCCCCCCCCC(=O)NCC(COP(=O)([O-])OCC[N+](C)(C)C)OCC (racemic) [rac-2-Ethoxy-3-hexadecanamido-1-propylphosphocholine]
3. COc1ccc(Cn2ccc3ccc(C(=O)NO)cc32)cc1
4. Nc1ncn([C@@H]2O[C@H](CO)[C@@H](O)[C@H]2O)c(=O)n1 [Azacitidine]

1: 1; 2: 1.01; 3: 0.923; 4: 1

Parameters: items (list). Returns: normalised cell viability for each item.
1. CN(CC[C@@H](Oc1ccc(C(F)(F)F)cc1)c1ccccc1)CC(=O)[O-].[Li+]
2. CC(C)C[C@@H]1NC(=O)[C@@H](C(C)C)NC(=O)[C@@H]2CCCN2C(=O)[C@@H](CC(=O)O)NC(=O)[C@@H](Cc2c[nH]c3ccccc23)NC1=O
3. CNCC[C@@H](Oc1ccc(C(F)(F)F)cc1)c1ccccc1 [R-(-)-Fluoxetine hydrochloride]
4. C[N+](C)(C)CC=O [Betaine aldehyde chloride]

1: 0.99; 2: 1.02; 3: 1.01; 4: 0.991

Parameters: items (list). Returns: normalised cell viability for each item.
1. Cn1c(=O)n(-c2ccc(C(C)(C)C#N)cc2)c2c3cc(-c4cnc5ccccc5c4)ccc3ncc21
2. O=C(O)[C@H]1C[C@H](C(=O)O)N1 (relative stereo) [trans-Azetidine-2,4-dicarboxylic acid]
3. CC1=C(C(=O)OC2CCCCC2)C(c2ccc([N+](=O)[O-])cc2)C2=C(CC(C)(C)CC2=O)N1 (centres undefined)
4. CCC(=O)Nc1cccc(Oc2nc(Nc3ccc(N4CCN(C)CC4)cc3OC)ncc2Cl)c1
5. C/C=C1\C(=O)C[C@H]2[C@@H]3CCC4=CC(=O)CC[C@]4(C)[C@H]3CC[C@]12C [(Z)-Guggulsterone]
6. O=C1NC(=O)C(=Cc2ccc(-c3ccc(F)cc3)o2)S1 (stereo in doubt)

[0.629, 1, 1.03, 1.06, 0.994, 0.996]

Parameters: items (list). Returns: normalised cell viability for each item.
1. N[C@H](C(=O)O)[C@H]1C[C@@H]1C(=O)O [(2S,1'S,2'S)-2-(carboxycyclopropyl)glycine]
2. Nc1nc2[nH]cnc2c(=S)[nH]1 [Thioguanine]
3. N#Cc1ccc2[nH]c(O)c(-c3ccc(CN4CCOCC4)cn3)c2c1

1. 0.994
2. 0.981
3. 1.05
